Molecular target: T1, hECD: full-length extracellular region of human MuSK (E22 to T495) with C-terminal Avi- and His6-tags (human, UniProt O15146 22-495, biotinylated in vitro using the BirA enzyme)
T1 construct: also called human ECD; not shown: Avi- and His6-tags
T1 sequence: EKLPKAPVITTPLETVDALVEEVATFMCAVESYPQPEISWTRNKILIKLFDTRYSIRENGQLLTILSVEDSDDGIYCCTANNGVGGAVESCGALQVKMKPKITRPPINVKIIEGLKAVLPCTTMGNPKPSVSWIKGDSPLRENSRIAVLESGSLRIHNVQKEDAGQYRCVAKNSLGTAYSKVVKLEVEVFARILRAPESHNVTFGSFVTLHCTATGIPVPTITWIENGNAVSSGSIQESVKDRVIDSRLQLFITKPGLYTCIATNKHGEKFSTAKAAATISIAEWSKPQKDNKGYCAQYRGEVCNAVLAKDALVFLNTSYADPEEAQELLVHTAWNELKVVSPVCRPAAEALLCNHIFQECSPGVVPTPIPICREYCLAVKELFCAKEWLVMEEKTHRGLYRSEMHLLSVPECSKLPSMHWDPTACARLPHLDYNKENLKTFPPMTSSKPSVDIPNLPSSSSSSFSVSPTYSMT
Assay: bead-binding assay, IgG format: biotinylated antigen on streptavidin beads, flow cytometry, 1:1 fit; average ± s.d., n=3
measurement_type: Kd (nM)
Provide the reading as a plain figure in nM.

Below, each entry is followed by its recorded Kd result.
binder	unit_descriptor	Kd
hIgG1-X2 (antibody, V domains shown, human IgG1 Fc containing LALA mutations; also called hIgG-X2; X2 in the human IgG1 format) VH: EVQLVESGGGLVQPGGSLRLSCAASGFTVSSSSIHWVRQAPGKGLEWVASISSSYGSTSYADSVKGRFTISADTSKNTAYLQMNSLRAEDTAVYYCARSEGDRYVSGYMGMDYWGQGTLVTVSS VL: DIQMTQSPSSLSASVGDRVTITCRASQSVSSAVAWYQQKPGKAPKLLIYSASSLYSGVPSRFSGSRSGTDFTLTISSLQPEDFATYYCQQSGVWLITFGQGTKVEIK	nM	0.478
hIgG1-X17 (antibody, V domains shown, human IgG1 Fc containing LALA mutations; also called hIgG-X17; X17 in human IgG1 format) VH: EVQLVESGGGLVQPGGSLRLSCAASGFTISYSSIHWVRQAPGKGLEWVASIYSSSGSTYYADSVKGRFTISADTSKNTAYLQMNSLRAEDTAVYYCARGDHGYYVFGYLGMDYWGQGTLVTVSS VL: DIQMTQSPSSLSASVGDRVTITCRASQSVSSAVAWYQQKPGKAPKLLIYSASSLYSGVPSRFSGSRSGTDFTLTISSLQPEDFATYYCQQSYKPGALITFGQGTKVEIK	nM	0.86

[ask] Entry mIgG2a-X17 (antibody, V domains shown, chimeric antibody of a human Fab (human CH1) and mouse IgG2a Fc with the LALAPG mutations; also called X17-mIgG2a-LALAPG; antibody X17) VH: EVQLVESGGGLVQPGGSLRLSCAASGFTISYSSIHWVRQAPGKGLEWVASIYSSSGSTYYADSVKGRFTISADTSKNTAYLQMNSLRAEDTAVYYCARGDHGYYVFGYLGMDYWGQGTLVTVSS VL: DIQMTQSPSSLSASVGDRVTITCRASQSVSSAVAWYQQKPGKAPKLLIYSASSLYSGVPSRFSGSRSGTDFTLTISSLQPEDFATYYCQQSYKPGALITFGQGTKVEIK : reported Kd = ?
[reply] 0.97
